Assay: physchem
Settings: %Recovery (stability)
Measurement Label: recovery at 30 d, 10 ng/mL

## Input // query recovery at 30 d, 10 ng/mL value for entry Oc1cc(O)cc(C=Cc2ccc(O)cc2O)c1 [Oxyresveratrol, 2,4,3′,5′–tetrahydroxystilbene]
## Output 72.4%
